Exercise: for every item that follows, state its recorded Mutant vs. 4E4.2 Parent B/D Ratio.
molecular target: T1, human CGRP receptor extracellular domain (ECD) (human, UniProt Q16602 23-138; O60894 27-117); assay: yeast-displayed Fab, FACS, 1 nM human CGRP receptor ECD
T1 construct: also called CGRP receptor ECD; human CGRP receptor ECD
T1 sequence (Q16602 23-138 limits assumed, chain 1 of 2): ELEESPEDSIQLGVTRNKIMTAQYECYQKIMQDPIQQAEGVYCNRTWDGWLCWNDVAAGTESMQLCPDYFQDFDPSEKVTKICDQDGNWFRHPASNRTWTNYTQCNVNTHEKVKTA
T1 sequence (O60894 27-117 limits assumed, chain 2 of 2): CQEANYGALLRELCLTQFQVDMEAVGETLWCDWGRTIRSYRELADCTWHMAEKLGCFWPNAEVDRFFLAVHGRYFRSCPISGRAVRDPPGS

// field: Mutant vs. 4E4.2 Parent B/D Ratio; key: anti-CGRP receptor variant 13, yeast-displayed Fab (Fab, V domains shown, also called Variant Ab ID 13) VH: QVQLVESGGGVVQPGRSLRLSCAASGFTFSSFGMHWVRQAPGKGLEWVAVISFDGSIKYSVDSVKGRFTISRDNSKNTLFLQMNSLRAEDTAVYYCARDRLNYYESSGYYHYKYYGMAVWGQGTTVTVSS VL: QSVLTQPPSVSAAPGQKVTISCSGSRSNIGRRTVSWYQQLPGTAPKLLIYDNNKRPSGIPDRFSGSKSGTSATLGITGLQTGDEADYYCGTWDSRLSAVVFGGGTKLTVLG ; value = 2.9 fold

Per the record, anti-CGRP receptor variant 02, yeast-displayed Fab (Fab, V domains shown, also called Variant Ab ID 02) VH: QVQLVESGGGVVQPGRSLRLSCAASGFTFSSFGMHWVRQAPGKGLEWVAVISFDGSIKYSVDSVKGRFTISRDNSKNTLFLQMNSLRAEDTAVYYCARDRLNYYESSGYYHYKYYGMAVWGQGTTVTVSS VL: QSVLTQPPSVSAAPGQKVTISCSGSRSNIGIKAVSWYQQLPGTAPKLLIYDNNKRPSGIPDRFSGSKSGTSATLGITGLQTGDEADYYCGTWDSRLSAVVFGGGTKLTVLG has Mutant vs. 4E4.2 Parent B/D Ratio of 1.4 fold

Input anti-CGRP receptor variant 04, yeast-displayed Fab (Fab, V domains shown, also called Variant Ab ID 04) VH: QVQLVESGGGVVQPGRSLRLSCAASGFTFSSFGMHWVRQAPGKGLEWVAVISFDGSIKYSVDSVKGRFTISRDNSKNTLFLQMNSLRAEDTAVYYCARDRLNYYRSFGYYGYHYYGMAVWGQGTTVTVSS VL: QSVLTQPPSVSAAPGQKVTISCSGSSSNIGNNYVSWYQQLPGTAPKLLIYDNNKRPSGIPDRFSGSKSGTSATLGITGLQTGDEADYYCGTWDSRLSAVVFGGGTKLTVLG . Output Mutant vs. 4E4.2 Parent B/D Ratio: 1.6 fold

Mutant vs. 4E4.2 Parent B/D Ratio reported for this binder anti-CGRP receptor variant 06, yeast-displayed Fab (Fab, V domains shown, also called Variant Ab ID 06) VH: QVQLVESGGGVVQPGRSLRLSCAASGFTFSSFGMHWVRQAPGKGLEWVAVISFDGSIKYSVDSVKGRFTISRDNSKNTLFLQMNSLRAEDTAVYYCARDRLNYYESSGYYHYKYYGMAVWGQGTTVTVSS VL: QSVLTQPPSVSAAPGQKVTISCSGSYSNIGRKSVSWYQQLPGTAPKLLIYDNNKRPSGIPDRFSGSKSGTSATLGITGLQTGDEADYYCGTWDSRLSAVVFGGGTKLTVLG : 2.2 fold

anti-CGRP receptor variant 14, yeast-displayed Fab (Fab, V domains shown, also called Variant Ab ID 14) VH: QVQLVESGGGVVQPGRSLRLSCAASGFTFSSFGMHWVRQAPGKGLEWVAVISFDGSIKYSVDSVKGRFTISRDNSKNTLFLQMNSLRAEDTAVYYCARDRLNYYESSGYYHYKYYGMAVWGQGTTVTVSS VL: QSVLTQPPSVSAAPGQKVTISCSGSSSNIGNNYVSWYQQLPGTAPKLLIYDNNKRPSGIPDRFSGSKSGTSATLGITGLQTGDEADYYCGTWDSWHRVVTFGGGTKLTVLG yielded Mutant vs. 4E4.2 Parent B/D Ratio of 1 fold

The measured Mutant vs. 4E4.2 Parent B/D Ratio associated with anti-CGRP receptor variant 08, yeast-displayed Fab (Fab, V domains shown, also called Variant Ab ID 08) VH: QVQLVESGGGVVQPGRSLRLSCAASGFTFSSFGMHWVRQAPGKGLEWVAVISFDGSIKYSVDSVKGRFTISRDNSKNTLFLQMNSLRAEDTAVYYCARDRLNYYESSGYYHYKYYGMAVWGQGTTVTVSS VL: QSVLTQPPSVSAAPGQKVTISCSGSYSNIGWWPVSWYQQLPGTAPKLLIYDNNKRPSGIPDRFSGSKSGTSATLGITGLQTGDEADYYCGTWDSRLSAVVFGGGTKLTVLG reads 1.4 fold
